# System Tested: unrelated control antibody
# Assay Summary: phage ELISA, 10^9 phagemid per well, wells coated with control mAb
Positions of bridges follow the written chain, without caps; N, C: chain ends. No end group written: not given here.
Experimental Readout: ELISA (absorbance units) (absorbance units)
// no unit, no text: just the number

INSERT INTO results (binder, experimental_value) VALUES
  ('CSLFYLWDQDRCS (disulfide 1-12 (inferred)) [phagemid CS1-2p]', 0.199),
  ('CSFFYSLCYCWCS (disulfide (positions not given here); also: disulfide cyclised, pairing of the four Cys not given here) [phagemid CS1-31p]', 0.118),
  ('CSGLYPWDMFRCS (disulfide 1-12 (inferred)) [phagemid CS1-9p]', 0.204),
  ('CSFRYLWDQDRCS (disulfide 1-12 (inferred)) [phagemid CS1-6p]', 0.172),
  ('CSFRYQWDMFRCS (disulfide 1-12 (inferred)) [phagemid CS1-11p]', 0.258);

# next binder below
According to the records, this binder CSGLYPWDYFMCS (disulfide 1-12 (inferred)) [phagemid CS1-29p] displays ELISA (absorbance units) (absorbance units) of 0.136
